# TARGET_UNDER_TEST: Neuropilin-1 (Rattus norvegicus) (UniProt Q9QWJ9)
# TEST: Inhibition of biotinylated VEGF-A165 binding to rat NRP1/FC chimera at 1 uM after 40 mins by ELISA relative to control
Residues, ends and D or L forms follow the SMILES beside them.
Measured inhibition values are reported for all entries that follow.
# output: bare number, implied unit %

Record excerpt, results attached:
MOLECULE	inhibition / %
N=C(N)NCCC[C@H](NC(=O)[C@H](CCN)NC(=O)[C@@H]1CCCN1C(=O)[C@@H](N)CCNC(=O)C(N)CCCCN=C(N)N)C(=O)O (stereo partly specified) (HELM PEPTIDE1{[Dab].P.[Dab].R}|PEPTIDE2{[N=C(N)NCCCCC(N)C(=O)[*:2]]}$PEPTIDE1,PEPTIDE2,1:R3-1:R2$$$V2.0)	41.4
N=C(N)NCCC[C@H](NC(=O)[C@@H]1CCCN1C(=O)[C@H](CCN)NC(=O)[C@@H](N)CCCCNC(=O)C(N)CCCCN=C(N)N)C(=O)O (stereo partly specified) (HELM PEPTIDE1{K.[Dab].P.R}|PEPTIDE2{[N=C(N)NCCCCC(N)C(=O)[*:2]]}$PEPTIDE1,PEPTIDE2,1:R3-1:R2$$$V2.0)	83.7

Kindly consider the entry below.
What does the record list as inhibition for N=C(N)NCCC[C@H](NC(=O)[C@H](CCCCN)NC(=O)[C@@H]1CCCN1C(=O)[C@@H](N)CCCCNC(=O)C(N)CCCCN=C(N)N)C(=O)O (stereo partly specified) (HELM PEPTIDE1{K.P.K.R}|PEPTIDE2{[N=C(N)NCCCCC(N)C(=O)[*:2]]}$PEPTIDE1,PEPTIDE2,1:R3-1:R2$$$V2.0) ?
22.4

###

# TARGET_UNDER_TEST: Neuropilin-1 (Rattus norvegicus)
# TEST: Inhibition of biotinylated VEGF-A165 binding to rat NRP1/FC chimera at 1 uM after 40 mins by ELISA relative to control
Residues, ends and D or L forms follow the SMILES beside them.
Recorded measurements of inhibition, one per entry
Respond numerically; units are % and should not be typed.

COMPOUND	inhibition (%)
N=C(N)NCCC[C@H](NC(=O)[C@@H]1CCCN1C(=O)[C@H](CCCN)NC(=O)[C@@H](N)CCCCNC(=O)C(N)CCCCN=C(N)N)C(=O)O (stereo partly drawn) (HELM PEPTIDE1{K.[Orn].P.R}|PEPTIDE2{[N=C(N)NCCCCC(N)C(=O)[*:2]]}$PEPTIDE1,PEPTIDE2,1:R3-1:R2$$$V2.0)	38
C[C@H](NC(=O)[C@@H](N)CCCCNC(=O)C(N)CCCCN=C(N)N)C(=O)N1CCC[C@H]1C(=O)N[C@@H](CCCNC(=N)N)C(=O)O (stereo partly drawn) (HELM PEPTIDE1{K.A.P.R}|PEPTIDE2{[N=C(N)NCCCCC(N)C(=O)[*:2]]}$PEPTIDE1,PEPTIDE2,1:R3-1:R2$$$V2.0)	20
N=C(N)NCCCC(N)C(=O)NCCC[C@H](N)C(=O)N1CCC[C@H]1C(=O)N[C@@H](CCN)C(=O)N[C@@H](CCCNC(=N)N)C(=O)O (stereo partly drawn) (HELM PEPTIDE1{[Orn].P.[Dab].R}|PEPTIDE2{[N=C(N)NCCCC(N)C(=O)[*:2]]}$PEPTIDE1,PEPTIDE2,1:R3-1:R2$$$V2.0)	40.3

Lab note: next compound to report on.
Please tell me: inhibition of N=C(N)NCCC[C@H](NC(=O)[C@@H]1CCCN1C(=O)[C@H](CCCCN)NC(=O)[C@@H](N)CCCCNC(=O)C(N)CCCCN=C(N)N)C(=O)O (stereo partly drawn) (HELM PEPTIDE1{K.K.P.R}|PEPTIDE2{[N=C(N)NCCCCC(N)C(=O)[*:2]]}$PEPTIDE1,PEPTIDE2,1:R3-1:R2$$$V2.0) , system Neuropilin-1 (Rattus norvegicus)?
22.1
